This section presents compounds with their documented IC50 values.
TEST TARGET: Prostaglandin E synthase (Homo sapiens)
Sequence (O14684 whole entry): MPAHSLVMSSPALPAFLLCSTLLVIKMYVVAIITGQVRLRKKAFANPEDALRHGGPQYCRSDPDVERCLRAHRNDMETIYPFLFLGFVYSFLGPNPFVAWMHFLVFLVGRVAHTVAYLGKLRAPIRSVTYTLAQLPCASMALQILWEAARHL
PROTOCOL: Inhibition of mPGES-1 in human IL-1beta-stimulated A549 cell microsomes assessed as reduction of PGE2 formation from PGH2 after 15 mins
QUANTITY MEASURED: IC50

>  <COMPOUND>
Cc1cccc(OCCCOc2ccc(CCC(=O)O)cc2)c1C

>  <RESULT>
> 10 µM

$$$$
>  <COMPOUND>
CCCCC(Sc1ccc(OCCCOc2ccccc2OC)cc1)C(=O)O (stereo not given)

>  <RESULT>
> 10 µM

$$$$
>  <COMPOUND>
CCCCC(Sc1ccc(OCCCOc2ccc(C)cc2)cc1)C(=O)O (stereo not given)

>  <RESULT>
9.3 µM

$$$$
>  <COMPOUND>
CCCCC(Sc1ccc(OCCCOc2cccc(OC)c2)cc1)C(=O)O (stereo not given)

>  <RESULT>
> 10 µM

$$$$
>  <COMPOUND>
CCCCC(Sc1ccc(OCCCOc2ccc3ncccc3c2)cc1)C(=O)OCC (stereo not given)

>  <RESULT>
> 10 µM

$$$$
